Below is a list of entries, each paired with its recorded pKi value.
molecular target: Neuronal acetylcholine receptor; alpha3/beta4 (Rattus norvegicus, UniProt P04757+P12392); test: Inhibition of [3H]epibatidine binding to rat Nicotinic acetylcholine receptor alpha3-beta4; type: protein-complex assay
Sequence (P04757 whole entry): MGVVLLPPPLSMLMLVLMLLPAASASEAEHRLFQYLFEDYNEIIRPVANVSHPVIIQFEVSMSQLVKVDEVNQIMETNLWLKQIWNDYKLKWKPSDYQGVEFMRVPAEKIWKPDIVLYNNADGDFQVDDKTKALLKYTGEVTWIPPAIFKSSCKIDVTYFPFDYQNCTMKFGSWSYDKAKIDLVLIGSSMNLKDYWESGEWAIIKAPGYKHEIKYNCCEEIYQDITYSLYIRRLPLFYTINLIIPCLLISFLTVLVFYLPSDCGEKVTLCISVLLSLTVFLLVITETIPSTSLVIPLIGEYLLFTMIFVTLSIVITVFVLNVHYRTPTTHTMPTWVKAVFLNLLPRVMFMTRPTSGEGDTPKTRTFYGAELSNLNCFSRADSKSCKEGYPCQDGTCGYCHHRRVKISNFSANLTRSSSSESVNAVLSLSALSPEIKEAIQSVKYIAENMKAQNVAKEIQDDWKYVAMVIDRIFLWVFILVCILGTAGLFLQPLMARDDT
Sequence (P12392 whole entry): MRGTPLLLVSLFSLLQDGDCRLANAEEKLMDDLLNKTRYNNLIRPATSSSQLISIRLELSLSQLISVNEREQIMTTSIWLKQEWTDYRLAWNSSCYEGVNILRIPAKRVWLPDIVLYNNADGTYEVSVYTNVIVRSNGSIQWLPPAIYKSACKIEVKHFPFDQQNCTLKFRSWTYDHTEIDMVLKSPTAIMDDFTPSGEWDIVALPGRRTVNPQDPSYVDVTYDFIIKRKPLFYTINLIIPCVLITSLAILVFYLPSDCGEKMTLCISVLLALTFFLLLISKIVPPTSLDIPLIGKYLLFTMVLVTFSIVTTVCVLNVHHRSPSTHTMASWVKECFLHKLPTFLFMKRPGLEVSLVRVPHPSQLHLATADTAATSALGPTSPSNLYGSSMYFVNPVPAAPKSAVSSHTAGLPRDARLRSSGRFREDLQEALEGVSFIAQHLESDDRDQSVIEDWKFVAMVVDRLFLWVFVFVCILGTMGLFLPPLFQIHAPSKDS
pKi field: float, defined as -log10 of concentration (mol/L).

## Input Form field: reported pKi of "CN1CCC[C@H]1COc1cncc(C#CCCCCO)c1"
## Output 4.20

## Input Form field: reported pKi of OCCCCC#Cc1cncc(C2CC3CCC2N3)c1 (stereo not drawn)
## Output 6.51

## Input Form field: reported pKi of "CN1CCC[C@H]1COc1cccnc1"
## Output 5.85

Sourced from ChEMBL document CHEMBL1142717
